System: SK-OV-3 ovarian
Assay: NCI tumour cell line growth inhibition, 48 h; in the data active = GI50 below about 0.43 µM; inactive = the rest
Result category, one only: 1 (active), 0 (inactive)

Solved entries (count: 8):
{"MOLECULE": "COc1ccc(/C=c2/sc3n(c2=O)C(c2ccc(OC)c(OC)c2)C2=C(N=3)c3cc(F)ccc3OC2)cc1 (stereo not given)", "CLASS_NAME": 0}
{"MOLECULE": "COc1cc(NC(C)CCCN)c2nccc(C)c2c1OC (stereo not given)", "CLASS_NAME": 0}
{"MOLECULE": "CC(=O)Oc1ccccc1C(=O)N=C1[Se]CCCN1C(=O)c1ccccc1OC(C)=O", "CLASS_NAME": 0}
{"MOLECULE": "O=C(Nc1cccc(Cl)c1Cl)c1cccc(NC2=C(Cl)C(=O)N(Cc3ccccc3)C2=O)c1", "CLASS_NAME": 0}
{"MOLECULE": "COc1ccc(-c2cc(-c3cccn3C)c(C#N)c(N)n2)cc1OC", "CLASS_NAME": 0}
{"MOLECULE": "COc1cc2cn3c4ccc(O)cc4[nH]c(=O)c3c2cc1OC", "CLASS_NAME": 1}
{"MOLECULE": "C#C[C@]1(O)CC[C@H]2[C@@H]3CC=C4c5sc(Nc6ccccc6)nc5CC[C@]4(C)[C@H]3CC[C@@]21C", "CLASS_NAME": 0}
{"MOLECULE": "COc1ccc(CNc2c3ccccc3nc3ccccc23)cc1OC", "CLASS_NAME": 0}

// query I would be grateful if you could indicate the recorded call for Cc1ccc(N(CSc2ccc(Cl)cc2)CSc2ccc(Cl)cc2)cc1 .
// result 0

// query I would be grateful if you could indicate the recorded call for CC(=O)Oc1ccccc1C(=O)N=C1[Se]CCN1C(=O)c1ccccc1OC(C)=O .
// result 0

###

Tested on: UACC-62 melanoma
Test: NCI tumour cell line growth inhibition, 48 h; in the data active = GI50 below about 0.43 µM; inactive = the rest
Result category, one only: Yes (active), No (inactive)

{"COMPOUND": "O=C1/C(=C\\c2cccn2Cc2ccccc2)c2ccccc2N1c1c(Cl)cccc1Cl", "EXPERIMENTAL_SYSTEM": "UACC-62 melanoma", "CLASS_NAME": "No"}
{"COMPOUND": "O=C(Nc1ccc(Cl)cc1F)c1cc(Br)ccc1O", "EXPERIMENTAL_SYSTEM": "UACC-62 melanoma", "CLASS_NAME": "Yes"}
{"COMPOUND": "CC(=O)OCC1OC([S-])C(OC(C)=O)C(OC(C)=O)C1OC(C)=O.CC[PH+](CC)CC.CC[PH+](CC)CC.[Au].[Au] (configuration not stated)", "EXPERIMENTAL_SYSTEM": "UACC-62 melanoma", "CLASS_NAME": "Yes"}
{"COMPOUND": "CCOC(=O)N1CCN(C(=O)c2ccc(C(F)(F)F)nc2Nc2cc(Cl)ccc2C)CC1", "EXPERIMENTAL_SYSTEM": "UACC-62 melanoma", "CLASS_NAME": "No"}
{"COMPOUND": "O=c1[nH]c2cc(Cl)ccc2n1C1CCN(CCCC(c2ccc(F)cc2)c2ccc(F)cc2)CC1", "EXPERIMENTAL_SYSTEM": "UACC-62 melanoma", "CLASS_NAME": "No"}
{"COMPOUND": "Cc1[nH][nH]c(=O)c1C=Nc1ccc(-c2nc3ccccc3[nH]2)cc1", "EXPERIMENTAL_SYSTEM": "UACC-62 melanoma", "CLASS_NAME": "No"}
{"COMPOUND": "O=C(CCCN1CC=C(n2c(=O)[nH]c3ccccc32)CC1)c1ccc(F)cc1", "EXPERIMENTAL_SYSTEM": "UACC-62 melanoma", "CLASS_NAME": "No"}
{"COMPOUND": "NC1CCCC[C@H]1N.N[C@@H]1CCCC[C@@H]1N.O=C(P(=O)([O-])[O-])P(=O)([O-])[O-].[Pt+4].[Pt+4]", "EXPERIMENTAL_SYSTEM": "UACC-62 melanoma", "CLASS_NAME": "No"}
{"COMPOUND": "CN(C)c1ccc2nc3ccc(=O)cc-3sc2c1", "EXPERIMENTAL_SYSTEM": "UACC-62 melanoma", "CLASS_NAME": "No"}
{"COMPOUND": "COc1ccc(/C=c2/sc3n(c2=O)C(c2ccc(OC)c(OC)c2)C2=C(N=3)c3cc(F)ccc3OC2)cc1 (configuration not stated)", "EXPERIMENTAL_SYSTEM": "UACC-62 melanoma", "CLASS_NAME": "No"}

// query I would be grateful if you could indicate the recorded call for Cc1c(C2Nc3ccccc3C2C)[nH]c2ccccc12 (configuration not stated) .
// result No

// query I would be grateful if you could indicate the recorded call for CCOC(=O)C1=C(C)N(N)C(=S)NC1c1ccc(C)cc1 (configuration not stated) .
// result No

// query I would be grateful if you could indicate the recorded call for Cc1ccc(Nc2nc(N)c(C(=O)c3ccc(C#N)cc3)s2)cc1 .
// result Yes

// query I would be grateful if you could indicate the recorded call for Nc1c(C(=O)N/N=C/c2ccc(-c3ccc(Cl)cc3)o2)cnn1-c1ccnc2c(C(F)(F)F)cccc12 .
// result No

// query I would be grateful if you could indicate the recorded call for Nc1nc(Br)nc2c1ncn2C1CC(O)C(CO)O1 (configuration not stated) .
// result No

// query I would be grateful if you could indicate the recorded call for Nc1nc(Nc2ccccc2)c2ncn(Cc3cc4c(cc3Br)OCO4)c2n1 .
// result Yes

// query I would be grateful if you could indicate the recorded call for O=C(N/N=C\c1cc(Br)ccc1O)c1ccncc1 .
// result No
